Assay comment: ACEA_ER_80hr: ACEA Biosciences xCELLigence Real-Time Cell Analysis on Estrogen Receptor Agonism for Proliferation (AID 2282667)
Test conditions: T47D proliferation, impedance (xCELLigence), 80 h
Results filed as inconclusive are left out. Active and inactive are the calls of the source. The calls were made as follows: active = hit-call score of the fitted dose curve at least 0.9, where 1 is the maximum; inconclusive = response in the unintended direction; inactive = score below 0.9.
# output must be one of 1 (active), 0 (inactive)

Below, 4 compounds whose answers are already recorded.
>>> df
                                   compound  assigned_label
0   OC1CCC(C2CCCCC2)CC1 (centres undefined)               0
1  CCCCC(CC)COC(=O)CCCCC(=O)OCC(CC)CCCC (centres undefined)               0
2                           CC(=O)CC(C)(C)O               1
3                              Oc1cccc(O)c1               0

Query: Which outcome was assigned to CCc1nn(C2CCCCC2)c2cc(C3(C#N)CCC(C(=O)O)CC3)ccc12 (centres undefined) in this test?
Response: 0

Query: Which outcome was assigned to ClC1=C(Cl)C(Cl)(Cl)C(Cl)=C1Cl in this test?
Response: 0

Query: Which outcome was assigned to C=C(C)C(=O)OCCC(F)(F)C(F)(F)C(F)(F)C(F)(F)C(F)(F)C(F)(F)F in this test?
Response: 0

Query: Which outcome was assigned to Nc1cccc2c(N)cccc12 in this test?
Response: 0

Query: Which outcome was assigned to CCCCCCC(=O)O in this test?
Response: 0

Query: Which outcome was assigned to CN(C)C=O in this test?
Response: 0

###

Assay comment: Tanguay_ZF_120hpf_BRAI_legacy: (Legacy) Oregon State University Tanguay Lab 120 Hour Post-fertilization zebrafish Assay for Brain Malformation (AID 2283641)
Records with an inconclusive call do not appear. Activity calls are given as the source filed them. Rule for the calls: active = hit-call score of the fitted dose curve at least 0.9, where 1 is the maximum; inconclusive = response in the unintended direction; inactive = score below 0.9.
# output must be one of active, inactive

Below, 3 compounds whose answers are already recorded.
In [3]: df
Out[3]:
                                   compound  assigned_label
0                                 OC1CCCCC1        inactive
1                              CCCCCCC(=O)O        inactive
2  CC(C)(C)CC(C)(C)c1ccc(O)c(-n2nc3ccccc3n2)c1        inactive

Query: Which outcome was assigned to CCc1ccc(CCOc2ccc(CC3SC(=O)NC3=O)cc2)nc1 (stereo not drawn) in this test?
Response: inactive

Query: Which outcome was assigned to CCCCCCCCCCCCN1CCCC1=O in this test?
Response: inactive

Query: Which outcome was assigned to O=C(O)Cc1cc(I)c(Oc2cc(I)c(O)c(I)c2)c(I)c1 in this test?
Response: active

Query: Which outcome was assigned to COC(=O)CCCCC(=O)OC in this test?
Response: inactive

Query: Which outcome was assigned to CC[C@H](c1ccc(O)cc1)[C@@H](CC)c1ccc(O)cc1 in this test?
Response: inactive

###

Read-out: Transforming growth factor beta 1 (TGFb1), TGFB1 (gene 7040)
Assay comment: BSK_KF3CT_TGFb1: BioMAP Diversity Plus: KF3CT Assay for Transforming growth factor beta 1 (TGFb1) Biomarker Activity (AID 2283072)
Test conditions: primary human keratinocytes with fibroblasts; actives raise or lower the signal
Active and inactive are the calls of the source. The calls were made as follows: active = hit-call score of the fitted dose curve at least 0.9, where 1 is the maximum; inactive = score below 0.9.
Measured metric: outcome

In [3]: df
Out[3]:
               smiles_representation  obs_value
0                 Nc1cccc2c(N)cccc12   inactive
1  O=C(OCCOCCOC(=O)c1ccccc1)c1ccccc1   inactive
2                 Cc1cc(C)c(O)c(C)c1   inactive
